Biological target: Nucleoprotein (Lymphocytic choriomeningitis virus (strain Armstrong))
Test: qHTS for Inhibitors of the Functional Ribonucleoprotein Complex (vRNP) of Lymphocytic Choriomeningitis Arenaviruses (LCMV): LCMV Primary Screen - GLuc reporter signal (AID 1347086); also: nearly all actives have a fitted effect of over 70% in size; also: potency is read from the fitted curve at half-maximal effect
Conditions: LCMV minigenome vRNP cell assay, Gaussia luciferase reporter; series mostly up to 57.5 µM
Inconclusive results are not listed. The source made the active and inactive calls. Calls follow the shape of the full dose curve.
attributeMeasured: Potency

[[record]]
molecule = "CS(=O)(=O)N1CCN(Cc2cc3nc(-c4cccc5[nH]ncc45)nc(N4CCOCC4)c3s2)CC1"
result = "1370 nM (active)"

[[record]]
molecule = "CC(C)c1cnn2c(NCc3ccccc3)cc(NCCCCCCN)nc12"
result = "1530 nM (active)"

[[record]]
molecule = "O=C(Nc1cc2cc[nH]c2cn1)c1ccccc1"
result = "inactive"

[[record]]
molecule = "NC(C(=O)N[C@@H]1C(=O)N2C(C(=O)O)=C(Cl)CS[C@H]12)c1ccccc1 (some centres undefined)"
result = "inactive"

[[record]]
molecule = "COc1cc(C(O)CO)ccc1O (centres undefined)"
result = "inactive"

[[record]]
molecule = "CCOC(=O)C1=C(N)Oc2ccc(Br)cc2C1C(C#N)C(=O)OCC (centres undefined)"
result = "inactive"

[[record]]
molecule = "CC1=CC(=O)/C(=C(/C)O)C(=O)O1"
result = "inactive"

[[record]]
molecule = "O=c1cc(N2CCOCC2)oc2c(-c3ccccc3)cccc12"
result = "inactive"

[[record]]
molecule = "CC1CCC[C@H](O)CCCCCc2cc(O)cc(O)c2C(=O)O1 (some centres undefined)"
result = "inactive"

[[record]]
molecule = "CC(=O)O[C@@H]1[C@H]2CC[C@@H]3[C@]1(C[C@@H](OC(C)=O)[C@@]1(O)C([C@@H]4O[C@@H]4C1(C)C)[C@]3(C)O)C[C@@]2(C)O (some centres undefined)"
result = "inactive"

[[record]]
molecule = "CC[C@H](C)/C=C(C)/C=C/C1=CC2=CC(=O)[C@]3(C)OC(=O)[C@@H](C(C)=O)[C@@H]3C2=CO1"
result = "inactive"

[[record]]
molecule = "C=CC(C)(CCC=C(C)C)OC(=O)CC(C)C (centres undefined)"
result = "inactive"

[[record]]
molecule = "O=C1CSC(=O)N1C(CCc1ccncc1)COc1ccc(-c2cccc([N+](=O)[O-])c2)cc1 (centres undefined)"
result = "7690 nM (active)"

[[record]]
molecule = "COc1ccc2[nH]cc(CCO)c2c1"
result = "inactive"

[[record]]
molecule = "CNC(=O)CN1CCC(Oc2cc3c(Nc4cccc(Cl)c4F)ncnc3cc2OC)CC1"
result = "38.5 nM (active)"

[[record]]
molecule = "COc1c2ccoc2c(OC[C@@H](O)C(C)(C)OC)c2oc(=O)ccc12"
result = "inactive"

[[record]]
molecule = "COc1ccc(C(C)=O)cc1"
result = "inactive"

[[record]]
molecule = "CC(C)=CCC[C@](C)(O[C@@H]1O[C@H](CO)[C@@H](O)[C@H](O)[C@H]1O)[C@H]1CC[C@]2(C)[C@@H]1[C@H](O)C[C@@H]1[C@@]3(C)CC[C@H](O[C@@H]4O[C@H](CO)[C@@H](O)[C@H](O)[C@H]4O[C@@H]4O[C@H](CO)[C@@H](O)[C@H](O)[C@H]4O)C(C)(C)[C@@H]3[C@@H](O)C[C@]12C"
result = "inactive"

[[record]]
molecule = "CC1COC2(CCN(c3nc(=O)c4cc(C(F)(F)F)cc([N+](=O)[O-])c4s3)CC2)O1 (centres undefined)"
result = "inactive"

